The values you see were collected from patent US20190309059A1.

# assayed target: his-labeled human IL-13 (immunogen A) (human) (UniProt P35225)
# measurement protocol: cell-based or functional assay
reported property: VCAM-1 fluorescence intensity, HUVEC + IL-13 0.5 ng/mL + TNFα; antibody at 0.53 nM
Returns: the value as a bare number; no unit string appended.

Input line: Which VCAM-1 fluorescence intensity, HUVEC + IL-13 0.5 ng/mL + TNFα; antibody at 0.53 nM reading was recorded for the binder c35E2C3 (mouse-human chimeric IL-13 antibody) (antibody, V domains shown) VH: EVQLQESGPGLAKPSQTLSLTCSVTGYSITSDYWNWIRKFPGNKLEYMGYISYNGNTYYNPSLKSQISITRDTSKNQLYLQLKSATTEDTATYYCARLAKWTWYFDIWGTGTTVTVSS VL: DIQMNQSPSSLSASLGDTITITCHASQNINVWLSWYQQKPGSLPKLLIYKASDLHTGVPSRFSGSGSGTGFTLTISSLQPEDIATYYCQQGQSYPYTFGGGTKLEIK ?
Output line: 299
